Where these numbers come from: patent US8178688B2

I'd be grateful if you could share measured inhibition at 1 µM for these entries.
tested on: osteoclast differentiation; experiment: Inhibitory effects on osteoclast differentiation (co-culture of bone marrow cells with osteoblast, TRAP staining); format: cell-based, mice; conditions: Mus musculus, Osteoclast, 168 h; 1 m; co-culture of bone marrow cells and osteoblast, 7 days, TRAP-positive osteoclasts versus controls; read-out: % inhibitory activity on osteoclastogenesis
One number for each entry, in %.

Illustrative cases are given below, each with its answer.
1) CCCOc1cc(OCCCCCOc2ccc(C(=N)NO)cc2)c(CC)cc1-c1csc(C)n1 [Example 213]	91.8
2) CCNc1nc(-c2ccc(OCCCCCOc3ccc(C(=N)NO)cc3)cc2)c(Cc2ccccc2)s1 [Example 108]	25.4
3) CCc1sc(NC(=O)c2cccnc2)nc1-c1ccc(OCCCCCOc2ccc(C(=N)NO)cc2)cc1 [Example 101]	43.7

Batch request: inhibition at 1 µM for each of the following compounds.
1. CCCCc1sc(N(C)CCN2CCOCC2)nc1-c1ccc(OCCCCCOc2ccc(C(=N)NO)cc2)cc1 [Example 144]
2. C=Cc1sc(-c2cccnc2)nc1-c1ccc(OCCCCCOc2ccc(C(=N)NO)cc2)cc1 [Example 79]
3. CCNc1nc(-c2ccc(OCCCCCOc3ccc(C(=N)NO)cc3)cc2)c(C)s1 [Example 87]
4. Cc1nc(-c2ccc(OCCOCCOc3ccc(C(=N)NO)cc3)cc2)c(C(C)C)s1 [Example 178]
5. Cc1nc(-c2ccc(OCCCCCCOc3ccc(C(=N)NO)cc3)cc2)c(C(C)C)s1 [Example 211]
6. CCS(=O)(=O)N(C)c1nc(-c2ccc(OCCCCCOc3ccc(C(=N)NO)cc3)cc2)cs1 [Example 118]

[94.4, 96.4, 58.1, 36.8, 44, 82.9]
